B1: ANKRD9 (parent)
chain: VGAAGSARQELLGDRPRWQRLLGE

Variants of: B1
assay info: protein stability index of a GFP-peptide fusion (GPS, HEK-293T) (PSI 1-6); higher = more stable;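 note: lentivirally expressed fusions sorted by FACS into six bins by GFP to DsRed ratio, PSI derived from sequencing read proportions per bin multiplied by bin number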
condition description: c terminus: a fixed tail appended
Give t when the value for protein stability index is at least 3. Give f when it is less.

>>> assigned_class("L22S")
"t"
>>> assigned_class("L21Y")
"f"
>>> assigned_class("L21T")
"t"

Is protein stability index for "P16D" at or above 3?
t

For this variant, is measured protein stability index 3 or higher? "L22A"
t

For this variant, is measured protein stability index 3 or higher? "A4I"
f
